- Species on record: Homo sapiens
- PROCEDURE SUMMARY: Selectivity index, ratio of Ki for human 5-HT1D receptor to Ki for human 5-HT7 receptor
Attribute: Ratio Ki
QUANTITY MEASURED: Ratio Ki

INSERT INTO assay_data (chemical_string, endpoint_value) VALUES
  ('Clc1ccc(-c2n[nH]c3c2CCNCC3)cc1', 70.5),
  ('Fc1ccc(-c2n[nH]c3c2CCNCC3)cc1', 6.1),
  ('Cc1ccc(-c2n[nH]c3c2CCNCC3)cc1', 3.5),
  ('Cc1ccc(-c2noc3c2CCNCC3)cc1', 9.2);

---

- PROCEDURE SUMMARY: Tmax in ICR mouse at 5 mg/kg, iv by LC-MS/MS analysis
- Type: ADME, organism-based
- CONDITION NOTES: in vivo
QUANTITY MEASURED: Tmax

INSERT INTO results (chemical_string, endpoint_value) VALUES
  ('Clc1ccc(-c2n[nH]c3c2CCNCC3)cc1', '6.6 min');

---

- TARGET: 5-hydroxytryptamine receptor 7 (Homo sapiens, UniProt P34969)
- Sequence (P34969 whole entry, the tested form may be a part): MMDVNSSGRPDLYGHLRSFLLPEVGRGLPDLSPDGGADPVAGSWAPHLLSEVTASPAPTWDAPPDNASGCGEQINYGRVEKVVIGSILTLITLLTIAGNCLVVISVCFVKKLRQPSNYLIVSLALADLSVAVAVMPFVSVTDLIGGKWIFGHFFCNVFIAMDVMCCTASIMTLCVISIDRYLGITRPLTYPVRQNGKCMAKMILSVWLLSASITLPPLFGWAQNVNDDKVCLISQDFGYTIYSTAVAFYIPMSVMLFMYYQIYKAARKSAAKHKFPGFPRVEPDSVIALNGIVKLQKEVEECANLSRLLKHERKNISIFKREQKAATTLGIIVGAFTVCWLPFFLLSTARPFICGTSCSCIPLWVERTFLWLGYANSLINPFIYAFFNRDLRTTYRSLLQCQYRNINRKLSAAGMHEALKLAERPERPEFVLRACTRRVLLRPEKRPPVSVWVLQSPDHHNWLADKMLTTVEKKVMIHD
- PROCEDURE SUMMARY: Agonist activity at tTA containing TCS cleavage site-fused 5-HT7 receptor (unknown origin) expressed in tTA-dependent luciferase reporter/TEV-fused beta-arrestin2 expressing HTLA cells assessed as induction of beta-arrestin2 recruitment after 22 hrs by Tango assay relative to 5-HT
- Type: functional, cell-based
QUANTITY MEASURED: Emax (%)

INSERT INTO assay_data (chemical_string, qualifier, endpoint_value) VALUES
  ('CC1CCN(CC[C@H]2CCCN2S(=O)(=O)c2cccc(O)c2)CC1', '<', 20),
  ('Fc1ccc(-c2n[nH]c3c2CCNCC3)cc1', '=', 53.9),
  ('Fc1ccc(-c2noc3c2CCNCC3)cc1', '=', 38.2),
  ('Clc1ccc(-c2n[nH]c3c2CCNCC3)cc1', '=', 62.8),
  ('Cc1ccc(-c2noc3c2CCNCC3)cc1', '=', 40.3),
  ('Clc1ccc(-c2noc3c2CCNCC3)cc1', '=', 47.1),
  ('Cc1ccc(-c2n[nH]c3c2CCNCC3)cc1', '=', 50.9);

---

- Species: Homo sapiens
- PROCEDURE SUMMARY: Selectivity index, ratio of Ki for human 5-HT2B receptor to Ki for human 5-HT7 receptor
One threshold, 4, splits the recorded Ratio Ki values: lower ones are rule met, equal or higher ones are rule not met.

INSERT INTO results (chemical_string, category) VALUES
  ('Fc1ccc(-c2n[nH]c3c2CCNCC3)cc1', 'rule met'),
  ('Clc1ccc(-c2noc3c2CCNCC3)cc1', 'rule met'),
  ('Fc1ccc(-c2noc3c2CCNCC3)cc1', 'rule not met'),
  ('Clc1ccc(-c2n[nH]c3c2CCNCC3)cc1', 'rule met'),
  ('Cc1ccc(-c2n[nH]c3c2CCNCC3)cc1', 'rule met'),
  ('Cc1ccc(-c2noc3c2CCNCC3)cc1', 'rule not met');

---

- Species on record: Homo sapiens
- PROCEDURE SUMMARY: Selectivity index, ratio of Ki for human 5-HT6 receptor to Ki for human 5-HT7 receptor
Attribute: Ratio Ki
QUANTITY MEASURED: Ratio Ki

INSERT INTO measurements (chemical_string, quantity_measured, endpoint_value) VALUES
  ('Cc1ccc(-c2n[nH]c3c2CCNCC3)cc1', 'Ratio Ki', 2.3),
  ('Fc1ccc(-c2n[nH]c3c2CCNCC3)cc1', 'Ratio Ki', 4),
  ('Cc1ccc(-c2noc3c2CCNCC3)cc1', 'Ratio Ki', 30.8),
  ('Clc1ccc(-c2noc3c2CCNCC3)cc1', 'Ratio Ki', 5.1),
  ('Clc1ccc(-c2n[nH]c3c2CCNCC3)cc1', 'Ratio Ki', 8.3);

---

Attribute: Imax
- TARGET: 5-hydroxytryptamine receptor 7 (Homo sapiens)
- PROCEDURE SUMMARY: Antagonist activity at human 5-HT7 receptor expressed in HEK293 cells assessed as inhibition of Gs protein-mediated cAMP accumulation by luminescence-based assay relative to SB269970
- Assay type: functional, cell-based
QUANTITY MEASURED: Imax (%)

INSERT INTO results (chemical_string, target, endpoint_value) VALUES
  ('Cc1ccc(-c2n[nH]c3c2CCNCC3)cc1', '5-hydroxytryptamine receptor 7 (Homo sapiens)', 97.4),
  ('Fc1ccc(-c2n[nH]c3c2CCNCC3)cc1', '5-hydroxytryptamine receptor 7 (Homo sapiens)', 98.4),
  ('Clc1ccc(-c2n[nH]c3c2CCNCC3)cc1', '5-hydroxytryptamine receptor 7 (Homo sapiens)', 94.8),
  ('Clc1ccc(-c2noc3c2CCNCC3)cc1', '5-hydroxytryptamine receptor 7 (Homo sapiens)', 94.9),
  ('Fc1ccc(-c2noc3c2CCNCC3)cc1', '5-hydroxytryptamine receptor 7 (Homo sapiens)', 98),
  ('Cc1ccc(-c2noc3c2CCNCC3)cc1', '5-hydroxytryptamine receptor 7 (Homo sapiens)', 95.8);

---

Assay read-out Ki; system under study: 5-hydroxytryptamine receptor 1E (Homo sapiens, UniProt P28566).
Sequence (P28566 whole entry): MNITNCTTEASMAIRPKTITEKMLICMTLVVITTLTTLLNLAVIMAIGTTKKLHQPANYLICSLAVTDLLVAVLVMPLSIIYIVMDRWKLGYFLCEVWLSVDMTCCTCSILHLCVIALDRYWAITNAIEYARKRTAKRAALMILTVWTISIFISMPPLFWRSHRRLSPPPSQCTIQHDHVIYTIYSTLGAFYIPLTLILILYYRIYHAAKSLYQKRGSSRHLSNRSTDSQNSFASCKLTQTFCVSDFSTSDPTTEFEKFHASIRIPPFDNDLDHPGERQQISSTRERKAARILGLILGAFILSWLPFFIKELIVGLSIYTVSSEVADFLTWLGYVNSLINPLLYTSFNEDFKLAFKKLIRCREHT
QUANTITY MEASURED: Ki (nM)

INSERT INTO results (chemical_string, qualifier, endpoint_value) VALUES
  ('Fc1ccc(-c2n[nH]c3c2CCNCC3)cc1', '=', 793),
  ('Cc1ccc(-c2n[nH]c3c2CCNCC3)cc1', '=', 890),
  ('Clc1ccc(-c2n[nH]c3c2CCNCC3)cc1', '=', 1370),
  ('Clc1ccc(-c2noc3c2CCNCC3)cc1', '>', 10000),
  ('Cc1ccc(-c2noc3c2CCNCC3)cc1', '=', 1790);

---

- PROCEDURE SUMMARY: Terminal half-life in ICR mouse at 5 mg/kg, iv by LC-MS/MS analysis
- Format: ADME, organism-based
- CONDITION NOTES: in vivo, read-out: beta t1/2 (converted)
QUANTITY MEASURED: half-life (min)

INSERT INTO measurements (chemical_string, unit_of_measurement, endpoint_value) VALUES
  ('Clc1ccc(-c2n[nH]c3c2CCNCC3)cc1', 'min', 107);

---

- TARGET: CYP1A2 (Homo sapiens, UniProt P05177)
- Sequence (P05177 whole entry): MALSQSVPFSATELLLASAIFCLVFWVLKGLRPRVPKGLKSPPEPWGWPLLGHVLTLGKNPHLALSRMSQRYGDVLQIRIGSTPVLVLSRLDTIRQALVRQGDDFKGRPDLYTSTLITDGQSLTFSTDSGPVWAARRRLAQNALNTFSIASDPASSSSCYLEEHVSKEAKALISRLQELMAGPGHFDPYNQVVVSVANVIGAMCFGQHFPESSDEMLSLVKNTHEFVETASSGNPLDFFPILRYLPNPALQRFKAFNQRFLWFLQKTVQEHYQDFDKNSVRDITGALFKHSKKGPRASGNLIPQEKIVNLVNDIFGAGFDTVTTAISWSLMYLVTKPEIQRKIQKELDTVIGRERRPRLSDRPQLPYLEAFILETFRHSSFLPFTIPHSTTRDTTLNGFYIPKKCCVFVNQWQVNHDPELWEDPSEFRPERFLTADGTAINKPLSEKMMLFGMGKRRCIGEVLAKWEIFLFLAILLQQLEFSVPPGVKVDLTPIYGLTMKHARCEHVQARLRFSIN
- PROCEDURE SUMMARY: Inhibition of CYP1A2 in human liver microsomes assessed as remaining activity at 10 uM using phenacetin as substrate preincubated for 5 mins followed by addition of NADPH generating system measured after 15 mins by LC-MS analysis
- Type: ADME
- CONDITION NOTES: probe phenacetin, read-out: Activity
QUANTITY MEASURED: activity at 0.25 h, 10 µM (%)

INSERT INTO assay_data (chemical_string, target, endpoint_value) VALUES
  ('Clc1ccc(-c2n[nH]c3c2CCNCC3)cc1', 'CYP1A2 (Homo sapiens, UniProt P05177)', 86);

---

- TARGET: 5-hydroxytryptamine receptor 1A (Homo sapiens)
- Sequence (P08908 whole entry): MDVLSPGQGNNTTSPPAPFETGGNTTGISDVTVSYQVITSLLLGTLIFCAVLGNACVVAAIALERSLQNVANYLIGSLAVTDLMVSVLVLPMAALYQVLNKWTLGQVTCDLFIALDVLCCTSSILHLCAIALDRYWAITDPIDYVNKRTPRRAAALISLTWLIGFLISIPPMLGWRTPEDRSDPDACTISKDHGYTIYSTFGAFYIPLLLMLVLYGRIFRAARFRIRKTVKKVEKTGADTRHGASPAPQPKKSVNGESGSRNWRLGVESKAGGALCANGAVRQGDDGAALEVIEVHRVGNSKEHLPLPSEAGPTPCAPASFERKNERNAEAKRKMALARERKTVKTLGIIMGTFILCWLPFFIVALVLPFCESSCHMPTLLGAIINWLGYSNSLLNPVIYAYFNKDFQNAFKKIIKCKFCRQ
pKi: −log10 of the molar value.
QUANTITY MEASURED: pKi

INSERT INTO assay_data (chemical_string, endpoint_value) VALUES
  ('Cc1ccc(-c2n[nH]c3c2CCNCC3)cc1', '< 5.00'),
  ('Cc1ccc(-c2noc3c2CCNCC3)cc1', '< 5.00'),
  ('Clc1ccc(-c2noc3c2CCNCC3)cc1', '< 5.00'),
  ('Clc1ccc(-c2n[nH]c3c2CCNCC3)cc1', '< 5.00'),
  ('Fc1ccc(-c2n[nH]c3c2CCNCC3)cc1', 5.73);
